Listed below: GI50 values for each entry.
- System: MDA-MB-231 breast
- protocol.text: NCI tumour cell line growth inhibition, 48 h

Solved cases below.
molecule	measurement.label	reported.measurement
COc1ccc(C2=C(c3ccc(OC)c(OC)c3)C(=O)N3CCCC3C2)cc1 (stereo not given)	GI50	22 µM
Cc1ccc(-c2csc(NC(=O)N3CCN(c4cc5c(cc4F)c(=O)c(C(=O)O)cn5C4CC4)CC3)n2)cc1	GI50	1.78 µM
COc1cc([N+](=O)[O-])c(OC)cc1-c1nc2sccn2c1/C=N/N=C(N)N	GI50	24.2 µM

In: Recorded GI50 for CN(C)CC1CCC2=C(C1=O)C(c1ccc(Cl)c(Cl)c1)C1=C(CCC(CN(C)C)C1=O)O2 (stereo not given) , please?
Out: 15.4 µM

In: Recorded GI50 for "COc1cc(/C=C/C(=O)c2ccc(F)cc2)ccc1OCCCN1CCN(CC(=O)Nc2ccc(Cl)cc2C(=O)c2ccccc2Cl)CC1" , please?
Out: 11.6 µM

====

Listed below: TGI values for each entry.
- Tested on: COLO 205 colon
- protocol.text: NCI tumour cell line growth inhibition, 48 h
Where a SMILES comes first, the peptide text is derived from it. The star is where a group is joined. Boc = CC(C)(C)OC(=O)*

molecule	measurement.label	reported.measurement
O=C(N/N=C(/COc1ccccc1)N=Cc1cccnc1)c1ccncc1	TGI	> 100 µM
CN(C)c1ccc(C(=NO)c2ccc(N(C)C)cc2)cc1	TGI	22.4 µM
CCOC(=O)c1cccc(NC(=O)CI)c1	TGI	1.86 µM
CCOC(=O)/C=C(/C)Nc1nc2c(c(C(=O)OC)c1C#N)CCCC2	TGI	> 100 µM
Cc1ccc2c(/C=C/c3ccc(N(C)C)cc3)ccc(C(C)C)cc1-2	TGI	> 100 µM
COC(=O)[C@H](Cc1ccc(O)cc1)NC(=O)[C@H](Cc1ccc(O)cc1)NC(=O)OC(C)(C)C (Boc-Tyr-Tyr-OMe)	TGI	> 100 µM
CC1(C)CC2CC(CC(C)(C)C2=O)C1=O	TGI	> 100 µM
O=[N+]([O-])c1ccc(N=Nc2ccc(O)c3ccccc23)cc1	TGI	32.1 µM

In: Recorded TGI for CCC[CH2][Sn]1([CH2]CCC)[O]C2C(CO)OC(n3ccc(N)nc3=O)C2[O]1 (stereo unspecified) , please?
Out: 3.15 µM

In: Recorded TGI for "O=C(Nc1ccc(Oc2cccc(F)c2)c(Cl)c1)c1cnccn1" , please?
Out: > 50 µM

In: Recorded TGI for "ClCCCCCc1c2nc(c(CCCCCCl)c3ccc([nH]3)c(CCCCCCl)c3ccc([nH]3)c(CCCCCCl)c3nc1C=C3)C=C2" , please?
Out: > 100 µM

In: Recorded TGI for "CN(C)C(=O)c1ccc([N+](=O)[O-])cc1" , please?
Out: > 100 µM

In: Recorded TGI for CC1=CC2c3cccc4[nH]cc(c34)CC2N(C)C1 (stereo unspecified) , please?
Out: > 100 µM

In: Recorded TGI for "O=C(c1cc2c(c3ccccc13)NC1(CCCCC1)N=C2C(F)(F)F)C(F)(F)F" , please?
Out: 18.1 µM

====

- System: SK-OV-3 ovarian
- protocol.text: NCI tumour cell line growth inhibition, 48 h
measurement.label: TGI

Solved cases below.
compound	TGI
N#CNC(=NCCc1c[nH]c2ccccc12)Oc1ccccc1	> 100 µM
COc1ccc(/C=C2\C[C@H]3[C@@H]4CCC5=CC(=O)CC[C@]5(C)[C@H]4CC[C@]3(C)C2=O)cc1OC	> 100 µM
COc1ccc(COC2CC(OC)OC(C)C2OC(=O)c2ccccc2)cc1 (stereo not given)	> 100 µM
COC1=C(C)C(=O)c2c(cc3c(c2O)C(C)(CCC=C(C)C)C(C)O3)C1=O (stereo not given)	> 100 µM

Next compound, TGI to be filled in.
In: Recorded TGI for "CCSc1nc(SCC)c2c(-c3ccc(OC)c(OC)c3)c(C#N)c(SCC)nc2n1" , please?
Out: > 100 µM

These data points were gathered from PubChem BioAssay (NCI).
